- Test system: L-carnitinamide hydrolase
- experiment_description: Inhibitors of L-carnitinamide hydrolase (metal ions, EDTA, 2-mercaptoethanol)
- Assay type: biochemical, Pseudomonas sp.
- experimental_context: at 10 mM
measured_attribute: Inhibition of the enzyme

• O=C(O)CN(CCN(CC(=O)O)CC(=O)O)CC(=O)O = do not show inhibition
• OCCS = do not show inhibition

* * *

- Tested on: L-carnitinamide hydrolase
- experiment_description: Inhibitors of L-carnitinamide hydrolase (metal ions, EDTA, 2-mercaptoethanol)
- Format: biochemical, Pseudomonas sp.
- experimental_context: concentration of 1 mM
measured_attribute: Inhibition of the enzyme

- OCCS: do not show inhibition
- [Ni+2]: no inhibition
- [Mn+2]: no inhibition
- [Mg+2]: no inhibition
- O=C(O)CN(CCN(CC(=O)O)CC(=O)O)CC(=O)O: do not show inhibition
- [Co+2]: no inhibition
- [Zn+2]: no inhibition

Sourced from patent US4918012A
